Molecular target: HuD (GST-HuD) (Rattus norvegicus (rat), UniProt O09032 1-385)
Sequence (O09032 whole entry): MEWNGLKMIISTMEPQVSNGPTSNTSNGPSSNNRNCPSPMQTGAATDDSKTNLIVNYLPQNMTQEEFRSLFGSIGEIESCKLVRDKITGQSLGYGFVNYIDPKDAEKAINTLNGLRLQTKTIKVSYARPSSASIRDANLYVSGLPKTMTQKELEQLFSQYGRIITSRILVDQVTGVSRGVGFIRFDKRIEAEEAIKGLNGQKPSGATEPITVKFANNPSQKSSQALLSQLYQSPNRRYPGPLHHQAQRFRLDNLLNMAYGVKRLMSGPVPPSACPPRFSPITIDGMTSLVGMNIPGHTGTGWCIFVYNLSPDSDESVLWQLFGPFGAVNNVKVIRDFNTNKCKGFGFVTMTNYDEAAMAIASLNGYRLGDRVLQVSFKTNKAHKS
Assay: competition EMSA; HuD displaces ZBP1 (4 pmol) from zipcode RNA; REMSA: 50 mM Tris-HCl pH 7.0, 150 mM NaCl, 5 mM MgCl2, 0.2 mM DTT, 0.25 mg/ml tRNA, 0.25 mg/ml BSA, room temperature 20 min; 20 fmol RNA and 3 pmol protein in 20 ul
Conditions: protein: recombinant; tags: GST N-terminal (pGEX-2T); label: biotin at both ends; stem-loop, 16-nt terminal loop (predicted)
measurementLabel: pIC50
Quick note: pIC50 means taking -log10 of the concentration in moles per liter.

// Input: WT zipcode (rat, 54 nt) (structured_RNA) RNA: CGGACUGUUACUGAGCUGCGUUUUACACCCUUUCUUUGACAAAACCUAACUUGC . Output its pIC50 only.
6.77
